- Test system: SF-539 CNS
- experimentalDetails: NCI tumour cell line growth inhibition, 48 h
Property: GI50; scope: individual molecules
propertyMeasured: GI50

[
  {
    "molecule": "COc1ccc(NC2=C(Br)C(=O)C(C)=C(C)C2=O)cc1",
    "measurement": "13.5 µM"
  },
  {
    "molecule": "COc1cc2c3c(n(C)c(=O)c2cc1OC)-c1cc2c(cc1/C3=C/CCCCBr)OCO2",
    "measurement": "7.07 µM"
  },
  {
    "molecule": "C=CC(=O)N1CCN(c2ncnc3c(F)c(-c4c(O)cccc4F)c(Cl)cc23)CC1",
    "measurement": "7.48 µM"
  },
  {
    "molecule": "O=C(N/N=C/c1ccc(Cl)cc1Cl)c1ccccc1Nc1cccc(C(F)(F)F)c1",
    "measurement": "3.36 µM"
  },
  {
    "molecule": "C=C(C)[C@@H]1CC[C@@]2(C(=O)O)CC[C@]3(C)C(CCC4[C@@]5(C)CCC(OS(=O)(=O)c6ccccc6)C(C)(C)C5CC[C@]43C)C12 (some centres not stated)",
    "measurement": "9.93 µM"
  },
  {
    "molecule": "COc1ccc(C2C(C#N)=C(N)OC3=C2CCCc2ccc(F)cc23)cc1OC (configuration not stated)",
    "measurement": "16.6 µM"
  },
  {
    "molecule": "COc1cc(/C=C2\\CC3C4CC=C5CC(N6CCCC6)CC[C@]5(C)C4CC[C@]3(C)C2OC(C)=O)ccc1OCCN1CCCC1 (some centres not stated)",
    "measurement": "1.92 µM"
  }
]

---

- System: HL-60(TB) leukemia
- experimentalDetails: NCI tumour cell line growth inhibition, 48 h
This listing pairs molecules with measured TGI.

[
  {
    "molecule": "O=C(O)c1cc2ccccc2c(S(=O)(=O)O)c1O",
    "TGI": "> 100 µM"
  },
  {
    "molecule": "NCCN1CCN(c2nccc(-c3ccc4ccccc4c3)n2)CC1",
    "TGI": "5.76 µM"
  },
  {
    "molecule": "C=CCOc1c(Br)cc(Br)cc1Br",
    "TGI": "89.3 µM"
  },
  {
    "molecule": "NC(CCSCC(F)F)C(=O)O (centres undefined)",
    "TGI": "> 100 µM"
  }
]

---

Reported GI50 is given for each of the following molecules.
- Test system: UACC-62 melanoma
- experimentalDetails: NCI tumour cell line growth inhibition, 48 h

[
  {
    "molecule": "COc1ccc(-c2cc(-c3cc(Cl)ccc3Cl)nc3nc(=S)[nH]c(N)c23)cc1",
    "studyTarget": "UACC-62 melanoma",
    "GI50": "6940 nM"
  },
  {
    "molecule": "O=C(Nc1cc(-c2ccccc2)[nH]n1)c1ccc(Cl)cc1",
    "studyTarget": "UACC-62 melanoma",
    "GI50": "> 100000 nM"
  },
  {
    "molecule": "Clc1ccc(OCc2nnc3n2N=C(c2ccc(Cl)cc2Cl)CS3)c(Cl)c1",
    "studyTarget": "UACC-62 melanoma",
    "GI50": "14100 nM"
  },
  {
    "molecule": "Cc1ccc(C(=O)CC(Sc2cccc(Cl)c2Cl)c2ccc(Cl)cc2)cc1C (stereo not given)",
    "studyTarget": "UACC-62 melanoma",
    "GI50": "21200 nM"
  },
  {
    "molecule": "CC(=O)[CH-]C(C)=O.CC(=O)[CH-]C(C)=O.N=CC=N.[Sn+2]",
    "studyTarget": "UACC-62 melanoma",
    "GI50": "2170 nM"
  },
  {
    "molecule": "Nc1nc(Nc2ccc(OCc3cccc(F)c3)cc2)c2c(n1)[nH]c1ccc(O)cc12",
    "studyTarget": "UACC-62 melanoma",
    "GI50": "1950 nM"
  },
  {
    "molecule": "CCCNCc1cc(C)cc2c1nc(N1CCNCC1)n2Cc1cc(C)c(F)c(C)c1",
    "studyTarget": "UACC-62 melanoma",
    "GI50": "1870 nM"
  },
  {
    "molecule": "COc1cc2c3c(n(C)c(=O)c2cc1OC)-c1cc2c(cc1/C3=C/CCCCBr)OCO2",
    "studyTarget": "UACC-62 melanoma",
    "GI50": "> 100000 nM"
  },
  {
    "molecule": "COCC(=O)OC1CCn2c1nc1c2C(=O)C(C)=C(NC(C)=O)C1=O (stereo not given)",
    "studyTarget": "UACC-62 melanoma",
    "GI50": "2080 nM"
  },
  {
    "molecule": "C=CC(=O)Nc1cccc(Nc2nc(Nc3ccc(OCCOC)cc3)ncc2F)c1",
    "studyTarget": "UACC-62 melanoma",
    "GI50": "1930 nM"
  }
]
